Cited source: the Immune Epitope Database (IEDB)

biological target: HLA-A*02:03; assay: IEDB peptide-MHC binding, purified MHC/competitive/radioactivity; filed as Kd, often an IC50 or EC50 that approximates it; bounds were set here for any values at or beyond the usual limits of such assays; details: source organism: Homo sapiens
REPORTED_ENDPOINT: pKd
# pKd = -log10(concentration in molar units)

Query: Which pKd is reported for this sequence? GLTADARLL
Response: 6.44

---

For each record, write down the corresponding Kd.
molecular target: HLA-B*45:06; assay: IEDB peptide-MHC binding, purified MHC/competitive/fluorescence; filed as Kd, often an IC50 or EC50 that approximates it; bounds were set here for any values at or beyond the usual limits of such assays; conditions: source organism: Yersinia pestis Nepal516

Query: Which Kd is reported for this sequence? AEYLYADGI
Response: ≥ 5 µM

Query: Which Kd is reported for this sequence? MPAIFFSIV
Response: ≥ 5 µM

---

biological target: HLA-B*40:02; experiment: IEDB peptide-MHC binding, purified MHC/competitive/radioactivity; filed as Kd, often an IC50 or EC50 that approximates it; bounds were set here for any values at or beyond the usual limits of such assays; details: source organism: Mammarenavirus lassaense
REPORTED_ENDPOINT: pKd
# pKd = -log10(concentration in molar units)

Query: Write down the reported pKd of DEADLDEILL , test system: HLA-B*40:02.
Response: 5.23

Query: Write down the reported pKd of FDAAVMGGF , test system: HLA-B*40:02.
Response: 5.28

---

target: HLA-B*07:02; test: IEDB peptide-MHC binding, purified MHC/direct/fluorescence; filed as Kd, often an IC50 or EC50 that approximates it; bounds were set here for any values at or beyond the usual limits of such assays; details: source organism: Pasteurella multocida
REPORTED_ENDPOINT: Kd

Query: Which Kd is reported for this sequence? SQLEMCEKY
Response: ≥ 20 µM

---

target: HLA-B*27:03; assay: IEDB peptide-MHC binding, purified MHC/competitive/fluorescence; filed as Kd, often an IC50 or EC50 that approximates it; bounds were set here for any values at or beyond the usual limits of such assays; details: source organism: Orthohantavirus khabarovskense
REPORTED_ENDPOINT: Kd

Query: Write down the reported Kd of FSLPSSSSY , test system: HLA-B*27:03.
Response: ≥ 20 µM

---

target: HLA-A*02:02; assay: IEDB peptide-MHC binding, purified MHC/competitive/radioactivity; filed as Kd, often an IC50 or EC50 that approximates it; bounds were set here for any values at or beyond the usual limits of such assays; details: source organism: Vaccinia virus WR
REPORTED_ENDPOINT: Kd (nM)
Write the answer as a number in nM, unit excluded.

Query: Which Kd is reported for this sequence? TTIGTIAGGV
Response: 741

Query: Which Kd is reported for this sequence? LINLVQYRI
Response: 311

Query: Which Kd is reported for this sequence? YLGPRVCWL
Response: 0.901

Query: Which Kd is reported for this sequence? RTRLYDYFT
Response: 7100

Query: Which Kd is reported for this sequence? GMMQNDYGGM
Response: 103

Query: Which Kd is reported for this sequence? TTLLNETAKV
Response: 1640

Query: Which Kd is reported for this sequence? GMSIVCIVAA
Response: 161

Query: Which Kd is reported for this sequence? QLYTISSESL
Response: 71.7

Query: Which Kd is reported for this sequence? PTSETMYLTM
Response: 862

Query: Which Kd is reported for this sequence? ALINLVQYRI
Response: 8.32

Query: Which Kd is reported for this sequence? CTIVDSMII
Response: 13900

Query: Which Kd is reported for this sequence? IISYIILFIL
Response: 66.2

Query: Which Kd is reported for this sequence? KLPTLFGRGV
Response: 190

Query: Which Kd is reported for this sequence? TLFIDRGSI
Response: 2100

Query: Which Kd is reported for this sequence? VLALYSPPL
Response: 0.224

Query: Which Kd is reported for this sequence? GALYLGHSA
Response: 7500

Query: Which Kd is reported for this sequence? ALVSDCASTI
Response: 94.2

Query: Which Kd is reported for this sequence? KTEHCDDFMT
Response: 7820

---

target: HLA-B*44:03; experiment: IEDB peptide-MHC binding, purified MHC/competitive/radioactivity; filed as Kd, often an IC50 or EC50 that approximates it; bounds were set here for any values at or beyond the usual limits of such assays; conditions: source organism: Mammarenavirus brazilense
REPORTED_ENDPOINT: Kd (µM)
Write the answer as a number in µM, unit excluded.

Query: Which Kd is reported for this sequence? CEMNHVNSM
Response: 0.963

---

molecular target: HLA-A*01:01; assay: IEDB peptide-MHC binding, purified MHC/competitive/radioactivity; filed as Kd, often an IC50 or EC50 that approximates it; bounds were set here for any values at or beyond the usual limits of such assays; details: source organism: Mammarenavirus machupoense
REPORTED_ENDPOINT: pKd
# pKd = -log10(concentration in molar units)

Query: Which pKd is reported for this sequence? CGDPSSFEY
Response: 7.40

---

biological target: HLA-A*02:01; assay: IEDB peptide-MHC binding, purified MHC/direct/fluorescence; filed as Kd, often an IC50 or EC50 that approximates it; bounds were set here for any values at or beyond the usual limits of such assays; conditions: source organism: Listeria monocytogenes
REPORTED_ENDPOINT: Kd (nM)
Write the answer as a number in nM, unit excluded.

Query: Which Kd is reported for this sequence? ALVSEVTEV
Response: 79.7

---

target: HLA-A*02:02; assay: IEDB peptide-MHC binding, purified MHC/competitive/radioactivity; filed as Kd, often an IC50 or EC50 that approximates it; bounds were set here for any values at or beyond the usual limits of such assays; conditions: source organism: Mammarenavirus brazilense
REPORTED_ENDPOINT: pKd
# pKd = -log10(concentration in molar units)

Query: Which pKd is reported for this sequence? KNATWCLEV
Response: 5.79

---

target: HLA-A*33:01; test: IEDB peptide-MHC binding, purified MHC/competitive/radioactivity; filed as Kd, often an IC50 or EC50 that approximates it; bounds were set here for any values at or beyond the usual limits of such assays; conditions: source organism: Lassa virus Josiah
REPORTED_ENDPOINT: Kd

Query: Write down the reported Kd of THLGPQFCK , test system: HLA-A*33:01.
Response: ≥ 77.7 µM

---

For each record, write down the corresponding Kd.
molecular target: HLA-B*54:01; experiment: IEDB peptide-MHC binding, purified MHC/competitive/radioactivity; filed as Kd, often an IC50 or EC50 that approximates it; bounds were set here for any values at or beyond the usual limits of such assays; conditions: source organism: Vaccinia virus WR
Write the answer as a number in µM, unit excluded.

Query: Which Kd is reported for this sequence? FPQHVITKDV
Response: 0.00046

Query: Which Kd is reported for this sequence? NPIINTHSF
Response: 9.62

Query: Which Kd is reported for this sequence? TPIFSDLLKY
Response: 12.8

Query: Which Kd is reported for this sequence? LPLTSLVITY
Response: 2.7

---

target: HLA-A*03:01; experiment: IEDB peptide-MHC binding, purified MHC/direct/fluorescence; filed as Kd, often an IC50 or EC50 that approximates it; bounds were set here for any values at or beyond the usual limits of such assays; conditions: source organism: Vibrio parahaemolyticus
pKd: −log10 of the molar value.
REPORTED_ENDPOINT: pKd

Query: Which pKd is reported for this sequence? YREAGIPVL
Response: ≤ 4.70

---

target: HLA-B*46:01; assay: IEDB peptide-MHC binding, purified MHC/competitive/fluorescence; filed as Kd, often an IC50 or EC50 that approximates it; bounds were set here for any values at or beyond the usual limits of such assays; conditions: source organism: Mycobacterium tuberculosis F11
REPORTED_ENDPOINT: pKd
# pKd = -log10(concentration in molar units)

Query: Which pKd is reported for this sequence? FSIPVTFSY
Response: 7.16

---

target: HLA-A*31:01; test: IEDB peptide-MHC binding, purified MHC/competitive/fluorescence; filed as Kd, often an IC50 or EC50 that approximates it; bounds were set here for any values at or beyond the usual limits of such assays; settings: source organism: Listeria monocytogenes serotype 4b str. CLIP 80459
REPORTED_ENDPOINT: Kd (nM)
Write the answer as a number in nM, unit excluded.

Query: Which Kd is reported for this sequence? YTYDLAEYR
Response: 8.3

---

target: HLA-B*27:05; experiment: IEDB peptide-MHC binding, purified MHC/direct/fluorescence; filed as Kd, often an IC50 or EC50 that approximates it; bounds were set here for any values at or beyond the usual limits of such assays; conditions: source organism: Vibrio vulnificus
pKd: −log10 of the molar value.
For each record, write down the corresponding pKd.

Query: Which pKd is reported for this sequence? EEVWRDPYL
Response: ≤ 4.70

Query: Which pKd is reported for this sequence? QSDIAGAIH
Response: ≤ 4.70
